- STUDY_SYSTEM: Human TRPV3 (Homo sapiens)
- Sequence (Q8NET8 whole entry): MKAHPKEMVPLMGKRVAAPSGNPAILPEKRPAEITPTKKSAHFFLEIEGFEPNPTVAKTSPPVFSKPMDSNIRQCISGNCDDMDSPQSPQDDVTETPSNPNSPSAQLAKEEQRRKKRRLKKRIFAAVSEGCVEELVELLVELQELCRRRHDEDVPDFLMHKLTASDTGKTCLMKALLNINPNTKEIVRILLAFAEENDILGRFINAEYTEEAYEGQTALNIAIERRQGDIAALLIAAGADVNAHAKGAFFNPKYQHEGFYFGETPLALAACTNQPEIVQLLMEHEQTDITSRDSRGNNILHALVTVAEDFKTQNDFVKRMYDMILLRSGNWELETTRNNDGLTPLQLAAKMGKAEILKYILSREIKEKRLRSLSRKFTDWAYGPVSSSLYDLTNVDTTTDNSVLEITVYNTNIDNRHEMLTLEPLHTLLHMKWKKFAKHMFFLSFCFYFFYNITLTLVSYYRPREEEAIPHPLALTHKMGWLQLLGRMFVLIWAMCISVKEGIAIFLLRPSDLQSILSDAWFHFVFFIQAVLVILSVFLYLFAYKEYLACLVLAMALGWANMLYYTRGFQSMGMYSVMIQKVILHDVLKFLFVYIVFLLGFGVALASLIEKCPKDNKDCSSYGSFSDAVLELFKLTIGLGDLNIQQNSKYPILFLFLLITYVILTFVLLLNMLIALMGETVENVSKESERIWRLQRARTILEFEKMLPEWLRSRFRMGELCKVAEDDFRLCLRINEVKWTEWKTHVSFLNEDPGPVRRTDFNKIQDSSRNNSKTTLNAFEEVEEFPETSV
- MEASUREMENT_NOTES: Screening for TRPV3 antagonist using the 45Calcium uptake assay (inhibition of 2-APB induced cellular uptake of radioactive calcium)
- CONDITIONS: Human TRPV3 expressing CHO cells; 2-APB 500 μM
RECORDED_ENDPOINT: IC50

Below: 6 molecules and their reported IC50.
COc1cccc(/C=C/c2nc3ccccn3c(=O)c2-c2ccc(C#N)cc2)c1OC1CCCC1 [Example 28]	< 500 nM
COc1cccc(/C=C/c2nc3ccccn3c(=O)c2-c2ccccc2)c1OC1CCCC1 [Example 20]	1000 to 2500 nM
COc1cccc(/C=C/c2nc3ccccn3c(=O)c2-c2cccc(OC(C)C)c2)c1OC1CCCC1 [Example 27]	1000 to 2500 nM
COc1cccc(/C=C/c2nc3ccccn3c(=O)c2-c2ccc(F)nc2)c1OC1CCCC1 [Example 36]	500 to 1000 nM
COc1cccc(/C=C/c2nc3ccccn3c(=O)c2-c2ccc3c(c2)OCCO3)c1OC1CCCC1 [Example 38]	< 500 nM
COc1cccc(/C=C/c2nc3ccc(Cl)cn3c(=O)c2-c2ccc(C#N)cc2)c1OC1CCCC1 [Example 43]	< 500 nM

I am curious: what IC50 value has been reported for CCCCOc1c(/C=C/c2nc3ccccn3c(=O)c2-c2ccc(OC(F)(F)F)cc2)cccc1OC [Example 9] ? 500 to 1000 nM

I am curious: what IC50 value has been reported for COc1cccc(/C=C/c2nc3ccccn3c(=O)c2-c2ccc(OC(F)(F)F)cc2)c1OC1CCCC1 [Example 24] ? 1000 to 2500 nM

I am curious: what IC50 value has been reported for COc1cccc(/C=C/c2nc3ccccn3c(=O)c2-c2ccc3ncccc3c2)c1OC1CCCC1 [Example 39] ? < 500 nM

I am curious: what IC50 value has been reported for CCCCCCOc1c(/C=C/c2nc3ccccn3c(=O)c2-c2ccc(C#N)cc2)cccc1OC [Example 14] ? < 500 nM

I am curious: what IC50 value has been reported for COc1cccc(/C=C/c2nc3ccccn3c(=O)c2-c2ccc(C#N)cc2)c1OCC1CC1 [Example 19] ? < 500 nM

I am curious: what IC50 value has been reported for O=c1c(-c2ccc(C(F)(F)F)cc2)c(/C=C/c2cccs2)nc2ccccn12 [Example 3] ? 1000 to 2500 nM

I am curious: what IC50 value has been reported for COc1cccc(/C=C/c2nc3ccccn3c(=O)c2-c2cccc(O)c2)c1OC1CCCC1 [Example 25] ? 1000 to 2500 nM

I am curious: what IC50 value has been reported for COc1cccc(/C=C/c2nc3ccccn3c(=O)c2-c2ccc(C(C)=O)cc2)c1OC1CCCC1 [Example 33] ? < 500 nM

I am curious: what IC50 value has been reported for CCCCCOc1c(/C=C/c2nc3ccccn3c(=O)c2-c2ccc(C#N)cc2)cccc1OC [Example 12] ? < 500 nM

I am curious: what IC50 value has been reported for COc1cccc(/C=C/c2nc3ccccn3c(=O)c2-c2ccc(C(F)(F)F)cc2)c1OCC1CC1 [Example 17] ? < 500 nM

I am curious: what IC50 value has been reported for COc1cccc(/C=C/c2nc3ccccn3c(=O)c2-c2ccc(OC(F)(F)F)cc2)c1OCC1CC1 [Example 18] ? < 500 nM

I am curious: what IC50 value has been reported for COc1cccc(/C=C/c2nc3ccccn3c(=O)c2-c2ccc(C(F)(F)F)cc2)c1OC1CCCC1 [Example 23] ? 500 to 1000 nM
